Test system: Pseudomonas fluorescens FW300-N2E2
SETUP CONDITIONS: medium / electron acceptor: N2E2 Glucose/aerobic (2)
Response field label: string, one of true (1) (IC50 growth inhibition strictly below 600 µM) or false (0).

Past entries and their recorded results:
* OP(O)O [Sodium phosphite dibasic pentahydrate] | true (1)
* [K+].[K+].[O]=[Cr](=[O])([O-])[O-] [Potassium chromate] | true (1)
* O.O.O.O.O.O.[Cl-].[Cl-].[Co+2] [Cobalt chloride hexahydrate] | true (1)
* O.O.O.O.O.O.[Al+3].[Cl-].[Cl-].[Cl-] [Aluminum chloride hydrate] | false (0)

Qu. Find out if reported IC50 growth inhibition for [O-][I+2]([O-])O [sodium iodate] is less than 600 µM
Ans. false (0)

Qu. Then what about the compound [Cl-].[Cs+] [Cesium chloride] ?
Ans. true (1)

Qu. Then what about the compound O.O.O.O.O.O.[Cl-].[Cl-].[Mg+2] [Magnesium chloride hexahydrate] ?
Ans. false (0)

Qu. Then what about the compound [O-][Cl+2]([O-])O [Sodium Chlorate] ?
Ans. true (1)

Qu. Then what about the compound O=P([O-])(O)O.[Na+] [Sodium phosphate monobasic monohydrate] ?
Ans. false (0)

Qu. Then what about the compound [Cl][Bi]([Cl])[Cl] [bismuth(III) chloride] ?
Ans. true (1)

Qu. Then what about the compound [I-].[Na+] [sodium iodide] ?
Ans. false (0)

Qu. Then what about the compound O.[Cl-].[Li+] [Lithium chloride hydrate] ?
Ans. false (0)

Qu. Then what about the compound [K+].[OH-].[OH-].[OH-].[OH-].[OH-].[OH-].[Sb+3] [potassium hexahydroxoantimonate] ?
Ans. false (0)

Qu. Then what about the compound [Ce+3].[Cl-].[Cl-].[Cl-] [Cerium(III) chloride] ?
Ans. true (1)

Qu. Then what about the compound O.O.[Cl][Cu][Cl] [copper (II) chloride dihydrate] ?
Ans. true (1)

Qu. Then what about the compound [Cl-].[Cl-].[Zn+2] [Zinc chloride] ?
Ans. true (1)

Qu. Then what about the compound [Cl][Pd][Cl] [Palladium(II) chloride] ?
Ans. true (1)

----------
Test system: Pseudomonas fluorescens FW300-N2E2
SETUP CONDITIONS: medium / electron acceptor: N2E2 Glucose/aerobic (2)
Structures can show the parent of a compound that is named as a salt.
Response field label: string, one of T (IC50 growth inhibition strictly below 3000 µM) or F.

Past entries and their recorded results:
• O=S(O)(O)=S [Sodium thiosulfate] = F
• [O-][Cl+]O [Sodium Chlorite] = T
• O=P(O)(O)OP(=O)(O)O [Sodium pyrophosphate dibasic] = T

Qu. Find out if reported IC50 growth inhibition for O=S([O-])[O-].[Na+].[Na+] [sodium sulfite] is less than 3000 µM
Ans. T

Qu. Then what about the compound O=C(O)CN(CC(=O)O)CC(=O)O ?
Ans. F

Qu. Then what about the compound O=[Se]([O-])[O-].[Na+].[Na+] [Sodium selenite pentahydrate] ?
Ans. T

Qu. Then what about the compound O.O.[Na+].[Na+].[O]=[W](=[O])([O-])[O-] [Sodium tungstate dihydrate] ?
Ans. F

Qu. Then what about the compound O=[Se](=O)([O-])[O-].[Na+].[Na+] [Sodium selenate] ?
Ans. T

Qu. Then what about the compound [Cl][Ga]([Cl])[Cl] [Gallium(III)chloride] ?
Ans. T

Qu. Then what about the compound NO [Hydroxylamine hydrochloride] ?
Ans. T
